molecular target: human CYP11B1 (Homo sapiens); construct: expressed in transfected cells; assay: G-402 cellular enzyme assay, human CYP11B1 (cortisol release, HTRF); type: cell-based; settings: G-402 cells, 1 μM Deoxycortisol
Sequence (P15538 25-503): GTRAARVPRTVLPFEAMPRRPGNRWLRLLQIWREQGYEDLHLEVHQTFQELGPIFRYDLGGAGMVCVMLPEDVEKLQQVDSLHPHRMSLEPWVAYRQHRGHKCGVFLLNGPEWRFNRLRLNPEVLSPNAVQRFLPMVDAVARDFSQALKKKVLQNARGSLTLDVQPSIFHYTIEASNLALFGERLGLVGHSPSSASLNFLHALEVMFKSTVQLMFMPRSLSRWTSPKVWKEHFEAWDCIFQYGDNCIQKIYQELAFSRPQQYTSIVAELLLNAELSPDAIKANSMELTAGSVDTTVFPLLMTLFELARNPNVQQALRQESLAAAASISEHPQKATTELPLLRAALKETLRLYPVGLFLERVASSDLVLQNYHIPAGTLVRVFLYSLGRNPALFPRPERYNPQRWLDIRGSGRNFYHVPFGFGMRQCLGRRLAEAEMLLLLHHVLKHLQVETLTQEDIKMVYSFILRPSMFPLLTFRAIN
Reported Metric: EC50 (µM)

The following compounds have reported results that may help.
Compound | Unit Abbrev | EC50
O=C1c2ccc(Cl)cc2C2(CC2)N1c1cnccc1Cl | µM | 0.86
CC1(C)c2nc(Cl)ccc2C(=O)N1c1cccnc1 | µM | 13.7
CCC1c2cc(Cl)ccc2C(=O)N1c1cncc(F)c1 (stereo not drawn) [Example 126] | µM | 3.56
C[S+]([O-])c1cncc(N2CCc3cc(Cl)ccc3C2=O)c1 (stereo not drawn) | µM | 11.1
CCC(=O)N1CCCC(c2cncc(N3C(=O)c4ccc(Cl)cc4C3(C)C)n2)C1 (stereo not drawn) | µM | 0.932
CC(=O)N[C@@H]1CCCc2c1cncc2N1C(=O)c2ccc(Cl)cc2[C@H]1C1CC1 (single isomer, unassigned) | µM | 22.8

I: O=C1c2ccc(Cl)cc2CCN1c1cncc(Br)c1
II: O=C(c1cncc(N2CCc3cc(Cl)ccc3C2=O)c1)N1CCC(F)(F)CC1
Lab note: check whether I or II shows the higher recorded EC50. Kindly give the label for the entry you pick.
II
(II: 23.2 µM, I: 0.704 µM)
